Data origin, for the record: PubChem BioAssay (NCATS)

# protocol.summary: qHTS profiling of the MIPE4 collection as inhibitors of Plasmodium falciparum (DD2) proliferation (AID 743345)
# test.context: P. falciparum Dd2 in erythrocytes, SYBR Green DNA, 72 h; at 28.5 µM (top of the series) unless noted
experimental.endpoint: parasite growth remaining, % of DMSO control (lower = more inhibition) (%)
Number in %, nothing else.

What value of parasite growth remaining, % of DMSO control (lower = more inhibition) has been recorded for this entry: CC1(C)S[C@H]2[C@H](NC(=O)[C@@H](N)c3ccc(O)cc3)C(=O)N2[C@@H]1C(=O)O
103

What value of parasite growth remaining, % of DMSO control (lower = more inhibition) has been recorded for this entry: O=C(CCc1ccc(O)cc1)c1c(O)cc(O)cc1O[C@@H]1O[C@H](CO)[C@H](O)[C@H](O)[C@H]1O
79.6

What value of parasite growth remaining, % of DMSO control (lower = more inhibition) has been recorded for this entry: COc1cc(NC(=O)c2ccc(-c3ccc(Cl)cc3)o2)cc(OC)c1
97.8

What value of parasite growth remaining, % of DMSO control (lower = more inhibition) has been recorded for this entry: NC(=O)[C@@H](CCC(F)(F)F)N(Cc1ccc(-c2ncon2)cc1F)S(=O)(=O)c1ccc(Cl)cc1
88.9

What value of parasite growth remaining, % of DMSO control (lower = more inhibition) has been recorded for this entry: CC(=O)Oc1cc2c(s1)CCN(C(C(=O)C1CC1)c1ccccc1F)C2 (centres undefined)
95.5

What value of parasite growth remaining, % of DMSO control (lower = more inhibition) has been recorded for this entry: CCOc1ccc(Nc2nc(-c3c(C)nc4ccccn34)cs2)cc1
17.3

What value of parasite growth remaining, % of DMSO control (lower = more inhibition) has been recorded for this entry: C[C@]12CC[C@@H]3c4ccc(O)cc4C[C@@H](CCCCCCCCCS(=O)CCCC(F)(F)C(F)(F)F)[C@H]3[C@H]1CC[C@H]2O (some centres undefined)
8.45

What value of parasite growth remaining, % of DMSO control (lower = more inhibition) has been recorded for this entry: C=C1C(=O)[C@@]23C(CC[C@@H]1[C@H]2O)[C@@]12CO[C@]3(O)[C@@H](O)[C@@H]1C(C)(C)CC[C@@H]2O (some centres undefined)
75.5

What value of parasite growth remaining, % of DMSO control (lower = more inhibition) has been recorded for this entry: Cc1[nH]c(C=C2C(=O)Nc3ccc(S(=O)(=O)Cc4c(Cl)cccc4Cl)cc32)c(C)c1C(=O)N1CCC[C@H]1CN1CCCC1
8.07

What value of parasite growth remaining, % of DMSO control (lower = more inhibition) has been recorded for this entry: CC(=O)OC1C(C)OC(Oc2c(-c3ccc(O)cc3)oc3cc(O)cc(O)c3c2=O)C(O)C1OC(C)=O (centres undefined)
72.5

What value of parasite growth remaining, % of DMSO control (lower = more inhibition) has been recorded for this entry: NC1CCC(Nc2nc(Nc3ccc(C(=O)N4CCCCC4)cc3)c3ncn(-c4cccc(F)c4)c3n2)CC1 (centres undefined)
89.1

What value of parasite growth remaining, % of DMSO control (lower = more inhibition) has been recorded for this entry: CN(C)C1CCN(C(=O)c2ccc(NC(=O)Nc3nc(N4CCOCC4)nc(N4CCOCC4)n3)cc2)CC1
7.83

What value of parasite growth remaining, % of DMSO control (lower = more inhibition) has been recorded for this entry: O=C(O)c1ccc(-c2cc3cccnc3c(-c3ccc4nonc4c3)n2)cc1
53.9

What value of parasite growth remaining, % of DMSO control (lower = more inhibition) has been recorded for this entry: N#Cc1ccc(NC(=O)Nc2ccccc2Br)c2n[nH]nc12
65.9

What value of parasite growth remaining, % of DMSO control (lower = more inhibition) has been recorded for this entry: O=C(NCc1ccccc1)c1csc(Nc2ccncn2)n1
79.6

What value of parasite growth remaining, % of DMSO control (lower = more inhibition) has been recorded for this entry: COc1ccc2c3c1OC1C[C@@H](O)C=C[C@@]31CCN(C)C2 (some centres undefined)
100

What value of parasite growth remaining, % of DMSO control (lower = more inhibition) has been recorded for this entry: O=C(Nc1ccccc1-c1cn2c(CN3CCNCC3)csc2n1)c1cnc2ccccc2n1
5.73

What value of parasite growth remaining, % of DMSO control (lower = more inhibition) has been recorded for this entry: CC(C)(Cc1ccc2ccccc2c1)NC[C@@H](O)COc1cccc(Cl)c1C#N
98.5
